Form field: pIC50 (one value per entry).
Molecular target: iNOS (Mus musculus, UniProt P29477)
Construct: endogenous in cells; host or cells: RAW 264.7 cells induced with LPS
Sequence (P29477 1-1144): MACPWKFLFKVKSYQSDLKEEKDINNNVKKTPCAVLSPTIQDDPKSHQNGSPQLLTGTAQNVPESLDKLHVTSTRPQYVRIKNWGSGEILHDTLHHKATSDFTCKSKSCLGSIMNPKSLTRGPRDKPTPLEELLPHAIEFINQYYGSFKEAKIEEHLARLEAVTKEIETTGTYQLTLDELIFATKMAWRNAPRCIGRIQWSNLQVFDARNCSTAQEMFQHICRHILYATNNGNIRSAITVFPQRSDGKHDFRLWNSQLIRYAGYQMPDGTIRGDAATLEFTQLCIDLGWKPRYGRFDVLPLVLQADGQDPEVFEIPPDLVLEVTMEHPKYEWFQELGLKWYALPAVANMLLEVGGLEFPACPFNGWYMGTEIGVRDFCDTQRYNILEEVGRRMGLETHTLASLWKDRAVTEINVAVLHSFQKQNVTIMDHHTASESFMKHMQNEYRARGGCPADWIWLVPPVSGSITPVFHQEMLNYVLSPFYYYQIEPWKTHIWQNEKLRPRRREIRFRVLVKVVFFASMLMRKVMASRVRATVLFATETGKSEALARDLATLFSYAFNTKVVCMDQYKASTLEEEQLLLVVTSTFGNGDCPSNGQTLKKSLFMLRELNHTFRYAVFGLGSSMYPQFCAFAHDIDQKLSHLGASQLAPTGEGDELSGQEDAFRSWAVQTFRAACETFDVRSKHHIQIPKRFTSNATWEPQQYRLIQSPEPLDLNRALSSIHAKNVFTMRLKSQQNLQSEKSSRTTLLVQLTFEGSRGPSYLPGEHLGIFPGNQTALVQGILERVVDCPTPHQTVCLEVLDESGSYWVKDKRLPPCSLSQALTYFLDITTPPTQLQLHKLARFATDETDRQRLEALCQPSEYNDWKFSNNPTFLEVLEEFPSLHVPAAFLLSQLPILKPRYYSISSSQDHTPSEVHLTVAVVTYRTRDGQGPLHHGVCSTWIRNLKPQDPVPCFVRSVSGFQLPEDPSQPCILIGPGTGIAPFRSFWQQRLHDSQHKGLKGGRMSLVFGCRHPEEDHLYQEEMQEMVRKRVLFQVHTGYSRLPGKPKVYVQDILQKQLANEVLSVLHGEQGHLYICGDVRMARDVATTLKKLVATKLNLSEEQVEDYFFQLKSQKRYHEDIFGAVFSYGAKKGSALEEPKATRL
Assay: iNOS enzymatic activity in LPS-induced RAW 264.7 cells
Format: cell-based
API: returns pIC50 as number; meaning -log10 of concentration in mol/L.

Solved cases (3 shown):
In [3]: df
Out[3]:
                                   compound                          system_name  measured_property  readout_number
0  COc1ccc(C(=O)/C=C/c2ccc(OCC(=O)ON=C(N)c3ccc(OC)cc3)cc2)cc1 [Compound 6c]  iNOS (Mus musculus, UniProt P29477)              pIC50            5.61
1  COc1ccc(/C=C/C(=O)c2ccc(OCC(=O)ON=C(N)c3ccc(OC)cc3)cc2)cc1 [Compound 4c]  iNOS (Mus musculus, UniProt P29477)              pIC50            5.44
2  COc1ccc(C(=O)/C=C/c2ccc(OCC(=O)O/N=C(\N)c3ccc([N+](=O)[O-])cc3)cc2)cc1 [Compound 6e]  iNOS (Mus musculus, UniProt P29477)              pIC50            5.15

Req: Data request, read-out pIC50, for COc1ccc(/C=C/C(=O)c2ccc(OCC(=O)ON=C(N)c3ccc(OC)c(OC)c3)cc2)cc1 [Compound 4d]
Resp: 5.65

###

measured-property: melting point

Solved cases (7 shown):
In [3]: df
Out[3]:
                                   compound         result
0  COc1ccc(C(=O)/C=C/c2ccc(OCC(=O)O/N=C(\N)c3ccc4ccccc4c3)cc2)cc1 [Compound 6f]  178 to 179 °C
1  COc1ccc(/C=C/C(=O)c2ccc(OCC(=O)ON=C(N)c3ccc([N+](=O)[O-])cc3)cc2)cc1 [Compound 4e]  184 to 186 °C
2  COc1ccc(C(=O)/C=C/c2ccc(OCC(=O)ON=C(N)c3ccc(Cl)cc3)cc2)cc1 [Compound 6b]  192 to 193 °C
3  COc1ccc(/C=C/C(=O)c2ccc(OCC(=O)ON=C(N)c3ccc(Cl)cc3)cc2)cc1 [Compound 4b]  180 to 182 °C
4  COc1ccc(C(=O)/C=C/c2ccc(OCC(=O)O/N=C(\N)c3ccc([N+](=O)[O-])cc3)cc2)cc1 [Compound 6e]  193 to 194 °C
5  COc1ccc(/C=C/C(=O)c2ccc(OCC(=O)O/N=C(\N)c3ccc4ccccc4c3)cc2)cc1 [Compound 4f]  176 to 178 °C
6  COc1ccc(C(=O)/C=C/c2ccc(OCC(=O)O/N=C(\N)c3ccccc3)cc2)cc1 [Compound 6a]  172 to 173 °C

Req: Data request, read-out melting point, for COc1ccc(/C=C/C(=O)c2ccc(OCC(=O)O/N=C(\N)c3ccccc3)cc2)cc1 [Compound 4a]
Resp: 164 to 166 °C

###

Form field: pIC50 (one value per entry).
biological target: bovine COX-1 (Ovis aries)
Sequence (P05979 25-600): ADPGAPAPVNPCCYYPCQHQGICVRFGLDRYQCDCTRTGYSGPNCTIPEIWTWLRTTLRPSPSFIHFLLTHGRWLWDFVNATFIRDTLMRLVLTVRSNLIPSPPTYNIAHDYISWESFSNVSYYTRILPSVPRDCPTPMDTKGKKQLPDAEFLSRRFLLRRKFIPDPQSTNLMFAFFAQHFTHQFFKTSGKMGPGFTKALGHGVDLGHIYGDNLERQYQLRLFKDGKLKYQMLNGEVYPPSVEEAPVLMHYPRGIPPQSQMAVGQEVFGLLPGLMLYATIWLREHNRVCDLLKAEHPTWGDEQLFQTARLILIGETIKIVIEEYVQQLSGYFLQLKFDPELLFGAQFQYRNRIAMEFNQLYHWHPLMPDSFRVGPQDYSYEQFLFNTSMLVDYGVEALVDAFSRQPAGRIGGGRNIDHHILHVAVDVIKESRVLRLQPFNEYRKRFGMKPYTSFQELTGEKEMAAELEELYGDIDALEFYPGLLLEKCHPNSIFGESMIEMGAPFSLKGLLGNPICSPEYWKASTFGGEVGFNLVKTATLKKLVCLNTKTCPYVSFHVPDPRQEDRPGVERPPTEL
API: returns pIC50 as number; meaning -log10 of concentration in mol/L.

>>> df
                            chemical_string  measured_property  readout_number
0  COc1ccc(C(=O)/C=C/c2ccc(OCC(=O)ON=C(N)c3ccc(OC)cc3)cc2)cc1              pIC50            4.19

Req: What reported pIC50 corresponds to COc1ccc(/C=C/C(=O)c2ccc(OCC(=O)ON=C(N)c3ccc(OC)cc3)cc2)cc1 on bovine COX-1 (Ovis aries)?
Resp: 4.70

Req: What reported pIC50 corresponds to COc1ccc(C(=O)/C=C/c2ccc(OCC(=O)O/N=C(\N)c3ccc(OC)c(OC)c3)cc2)cc1 on bovine COX-1 (Ovis aries)?
Resp: 4.75

Req: What reported pIC50 corresponds to COc1ccc(/C=C/C(=O)c2ccc(OCC(=O)ON=C(N)c3ccc(OC)c(OC)c3)cc2)cc1 on bovine COX-1 (Ovis aries)?
Resp: 5.23

Req: What reported pIC50 corresponds to COc1ccc(C(=O)/C=C/c2ccc(OCC(=O)O/N=C(\N)c3ccc([N+](=O)[O-])cc3)cc2)cc1 on bovine COX-1 (Ovis aries)?
Resp: 4.90

###

system: carrageenan-induced paw edoema; assay: Carrageenan-induced rat paw edoema; type: in vivo, Wistar albino rats; details: rat, 50 mg/kg oral, 1 h after carrageenan
measured-property: % of edoema inhibition (% mean ± SEM), 1 h (%)
Please respond with the number in % and leave the unit unwritten.

>>> df
                                   molecule  readout_number
0  COc1ccc(C(=O)/C=C/c2ccc(OCC(=O)O/N=C(\N)c3ccc([N+](=O)[O-])cc3)cc2)cc1 [Compound 6e]           10.23
1  COc1ccc(/C=C/C(=O)c2ccc(OCC(=O)ON=C(N)c3ccc(OC)cc3)cc2)cc1 [Compound 4c]           11.21
2  Cc1ccc(-c2cc(C(F)(F)F)nn2-c2ccc(S(N)(=O)=O)cc2)cc1 [Celecoxib, reference compound]           10.61

Req: What reported % of edoema inhibition (% mean ± SEM), 1 h corresponds to COc1ccc(C(=O)/C=C/c2ccc(OCC(=O)ON=C(N)c3ccc(OC)cc3)cc2)cc1 [Compound 6c] on carrageenan-induced paw edoema?
Resp: 11.42

Req: What reported % of edoema inhibition (% mean ± SEM), 1 h corresponds to COc1ccc(/C=C/C(=O)c2ccc(OCC(=O)ON=C(N)c3ccc(OC)c(OC)c3)cc2)cc1 [Compound 4d] on carrageenan-induced paw edoema?
Resp: 11.65

Req: What reported % of edoema inhibition (% mean ± SEM), 1 h corresponds to COc1ccc2c(c1)c(CC(=O)O)c(C)n2C(=O)c1ccc(Cl)cc1 [Indomethacin, reference compound] on carrageenan-induced paw edoema?
Resp: 28.03

Req: What reported % of edoema inhibition (% mean ± SEM), 1 h corresponds to COc1ccc(C(=O)/C=C/c2ccc(OCC(=O)O/N=C(\N)c3ccc(OC)c(OC)c3)cc2)cc1 [Compound 6d] on carrageenan-induced paw edoema?
Resp: 13.25

Req: What reported % of edoema inhibition (% mean ± SEM), 1 h corresponds to COc1ccc(C(=O)/C=C/c2ccc(OCC(=O)O/N=C(\N)c3ccccc3)cc2)cc1 [Compound 6a] on carrageenan-induced paw edoema?
Resp: 14.36

The measured values listed here are drawn from paper PMC8158245.
